- procedure-text: IANBD-channel fluorescence artefacts in buffer – biochemical, artefact control for cardiac RTF calcium sensitizer project, confirmation (AID 504382)
- condition-label: IANBD fluorescence interference counterscreen, EC20 Ca2+, at 7.2 µM, active compounds read high, scaled: EC20 calcium 0, EC100 calcium 100
Hit rate of the full screen: of about 2,500 compounds, about 460 (18%) were called active. These entries were drawn from the full list.
quantity-kind: fluorescence artifact activation (%)
// return numeric value only (unit: %, not printed)

Exercise: Which measured fluorescence artifact activation value corresponds to CCC12CN3CCN(CC(C3)/C1=N\NC(=O)Nc1ccccc1)C2 ?
Solution: -0.04

Exercise: Record: O=C(Nc1ccc(Cl)cn1)C1COc2ccccc2O1 (centres undefined)
Solution: 14.7

Exercise: Record: CCOC(=O)/C(C#N)=C\C=C1C=CN(C)C=C1
Solution: 0.04

Exercise: Record: CCc1ccccc1NC(=O)COc1ccc2c(=O)c(Oc3cc(C)ccc3C)coc2c1
Solution: 664

Exercise: Record: O=C(COC(=O)c1ccc(O)cc1)Nc1ccc2c(c1)OCCO2
Solution: 13.1

Exercise: Record: O=C(NCc1cccc(F)c1)c1cccc2c1C(=O)c1ccc(N3CCCC3)cc1S2(=O)=O
Solution: -0.02

Exercise: Record: COc1ncnc2c1NC1=C(S2)C(=NCCC(=O)O)CC(C)(C)C1
Solution: 19.4

Exercise: Record: Cc1ccccc1N(CC(N)=O)S(C)(=O)=O
Solution: -0.02

Exercise: Record: Cc1cc2c(cc1S(=O)(=O)CCC(=O)NCCc1ccccc1)OCC(=O)N2
Solution: 11.3

Exercise: Record: CC(C)(C)c1cc[n+](-c2[nH]c(=O)sc2/C=N/NC([S-])=Nc2ccccc2)cc1
Solution: 1.92

Exercise: Record: CS(=O)(=O)N(CC(=O)NCCSCc1ccccc1)c1ccccc1
Solution: 0.13

Exercise: Record: O=C(Nc1nc(-c2nc3ccccc3s2)cs1)C1COc2ccccc2O1 (centres undefined)
Solution: 11.1

Exercise: Record: COc1cc(OC)c(C2N(c3ccc(Cl)c(Cl)c3)C(=O)C3CCCN32)cc1OC (centres undefined)
Solution: -0.1

Exercise: Record: Cc1ccc(C2C(C(=O)c3cccs3)=C(O)C(=O)N2c2nnc(C)s2)cc1 (centres undefined)
Solution: 17.5

Exercise: Record: COCCNC(=O)CSc1nc(N)c(NC(=O)c2ccccc2F)c(=O)[nH]1
Solution: 1.87

Exercise: Record: CC(C)(C)OC(=O)[C@H](Cc1ccccc1)NC(=O)c1nc[nH]c1C(=O)NCc1ccccc1
Solution: 4.14

Exercise: Record: CC1=CC(=C(C#N)C#N)C=C(C)N1Cc1ccc(Cl)cc1
Solution: 10.8

Exercise: Record: Cc1nnc(SCC(=O)NC(C)(C)C)n1C1CCCCC1
Solution: 10.9

Exercise: Record: COc1ccc(OC)c(S(=O)(=O)N2CCC(C(=O)NCc3ccccn3)CC2)c1
Solution: 1.09

Exercise: Record: CCCCc1ccc(NC(=O)N2CCNC(=O)C2CC(=O)Nc2ccsc2C(=O)OC)cc1 (centres undefined)
Solution: -0.11

Exercise: Record: NC(=O)c1ccc(NC(=O)COC(=O)c2c3c(nc4ccccc24)/C(=C\c2ccc4c(c2)OCO4)CCC3)cc1
Solution: 0.16

Exercise: Record: CC(CCc1ccc(O)cc1)NCCC(c1ccccc1)c1ccccc1 (centres undefined)
Solution: 13.1

Exercise: Record: COc1ccccc1C(=O)Oc1ccc2c(c1)O/C(=C\c1ccncc1)C2=O
Solution: 8.13

Exercise: Record: COc1cccc(C2C(C#N)=C(N)Oc3cc(C)oc(=O)c32)c1OC (centres undefined)
Solution: 6.53

Exercise: Record: COc1cc(/C=C/c2sc3ccccc3[n+]2CCCS(=O)(=O)[O-])ccc1O
Solution: 1.3

Exercise: Record: Cc1ccsc1C1NC(=O)c2c(sc3c2CCN(C)C3)N1 (centres undefined)
Solution: 28.8

Exercise: Record: COC1=C/C(=C/c2c(N)n3cc(C)sc3nc2=O)C=CC1=O
Solution: -0.03

Exercise: Record: CCCCNC(=O)Nc1nnc(-c2ccccc2)o1
Solution: 0.13

Exercise: Record: O=C(Nc1ccccc1)C1CC2CCCC(C1)C2=O (centres undefined)
Solution: 2.4

Exercise: Record: CN(N=Nc1nc[nH]c1C(=O)NN)C1CCCCC1
Solution: 0.38

Exercise: Record: COC(=O)c1ccc(S(=O)(=O)N(CCO)Cc2ccccc2)n1C
Solution: -0.01

Exercise: Record: CN(C)c1ccc(/C=C/C(=O)c2cccc(Br)c2)cc1
Solution: 0.06

Exercise: Record: Cc1cc(=O)oc2cc(OCC(=O)OCC(=O)NC(C)C)ccc12
Solution: -0.02

Exercise: Record: O=C1c2ccccc2C(=O)N1CC1=NCCc2ccccc21
Solution: 0.03

Exercise: Record: CCOC(=O)Cc1csc(CC(N)=O)n1
Solution: 2.47

Exercise: Record: CS(=O)(=O)N(CC(=O)N/N=C/c1ccco1)c1ccccc1Br
Solution: 48.6

Exercise: Record: CCOC(=O)C1=C(C)N=c2s/c(=C\c3ccc(OCC(=O)O)cc3)c(=O)n2C1c1ccc(Cl)cc1 (centres undefined)
Solution: 0.05

Exercise: Record: COc1ccc(C2C(C(=O)c3cccs3)=C(O)C(=O)N2c2nnc(C)s2)cc1OC (centres undefined)
Solution: 0.77

Exercise: Record: CCOC(=O)Cc1csc(NC(=O)c2sc3nc4cc(C)ccc4cc3c2N)n1
Solution: 19

Exercise: Record: CN1CCc2c(sc3c2C(=O)NC(c2cccs2)N3)C1 (centres undefined)
Solution: 0.27

Exercise: Record: CN(/N=C/c1ccc(O)cc1O)c1ncc(C(F)(F)F)cc1Cl
Solution: 0.11

Exercise: Record: Cc1ccc(C2NC(=O)c3c(sc4c3CCN(C)C4)N2)s1 (centres undefined)
Solution: 0

Exercise: Record: Cc1nccc(-c2cccc(N/N=C(\C#N)C(=O)c3ccccc3)c2)n1
Solution: -0.02

Exercise: Record: COc1ccc(C2C(C#N)=C(N)N(c3cccnc3)C3=C2C(=O)CCC3)cc1Cn1cc([N+](=O)[O-])cn1 (centres undefined)
Solution: 4.77
